Entries and their measured XC50 follow.
tested on: Plasmodium falciparum; experiment: GSK_TCMDC: Inhibition of Plasmodium falciparum 3D7 in whole erythrocytes, using parasite LDH activity as an index of growth.; assay type: functional, organism-based; conditions: Plasmodium falciparum, 3D7

COMPOUND | XC50 (nM)
O=C(N[C@@H](Cc1ccccc1)[C@H](O)CNC1CCc2ccccc2C1)c1cc(C2CCCC2)cc(N2CCCC2=O)c1 (some centres undefined) | 161
O=C(C=Cc1ccccc1C(F)(F)F)NC1CCC(CN2CCC(c3c[nH]c4ccccc34)CC2)CC1 (centres undefined) | 677
O=C(NCc1cccc(C(F)(F)F)c1)C(c1cc2ccccc2o1)N1CCN(C(c2ccccc2)c2ccccc2)CC1 (centres undefined) | 498
CC(CC(=O)NCC1(c2ccc(F)cc2Cl)CCOCC1)C(=O)c1ccc(Cl)cc1 (centres undefined) | 856
CC(C)C(=O)NC(c1cccs1)c1cc(Cl)c2cccnc2c1O (centres undefined) | 575
O=C(Nc1ccc(OC2CCN(Cc3ccsc3)C2)c(Cl)c1)c1ccco1 (centres undefined) | 602
Cc1ccc(CNC(=O)[C@H](Cc2ccccc2)Nc2cc(C)nc(Nc3ccccc3)n2)cc1 | 853
COc1cc(Cc2cnc(N)nc2N)cc(OCCCCC2NC(=O)NC2=O)c1OC (centres undefined) | 714
Fc1cccc(COc2ccc(-n3ccc4c(NCCCn5ccnc5)ncnc43)cc2Cl)n1 | 1030
